Molecular target: 6×HIS-tankyrase1 (1091-1325) (Homo sapiens (Human), UniProt O95271)
Sequence (O95271 1091-1325): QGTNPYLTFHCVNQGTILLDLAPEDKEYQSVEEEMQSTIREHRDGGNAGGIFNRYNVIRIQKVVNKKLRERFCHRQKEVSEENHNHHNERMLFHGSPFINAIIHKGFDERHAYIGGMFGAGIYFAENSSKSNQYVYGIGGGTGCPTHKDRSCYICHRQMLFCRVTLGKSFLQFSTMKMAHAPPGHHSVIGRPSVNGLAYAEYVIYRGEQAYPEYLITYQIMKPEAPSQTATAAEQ
Assay: Tankyrase 1 biochemical assay (AlphaLisa, PARsylation)
Conditions: 400 nM NAD, 60 minutes at RT; read-out: TNKS1 IC50
pIC50: −log10 of the molar value.
recordedEndpoint: pIC50

Answered cases to consult:
- compound: "O=C(CCCc1nc2ccccc2c(=O)[nH]1)N[C@H]1CC[C@H](Oc2ccccn2)CC1 [Example 56]"
  pIC50: 8.60
- compound: "O=C(CCCc1nc2ccccc2c(=O)[nH]1)N1CCC(c2nnc(-c3ccc(Cl)cc3)o2)CC1 [Example 4]"
  pIC50: 7.96
- compound: "O=C(CCCc1nc2ccccc2c(=O)[nH]1)N1CCN(c2nsc3ccccc23)CC1 [Example 69]"
  pIC50: 6.39
- compound: "O=C(CCCc1nc2ccccc2c(=O)[nH]1)N1CCC(c2nnc(-c3ccncc3)o2)CC1 [Example 19]"
  pIC50: 7.82
- compound: "O=C(CC[S+]([O-])c1nc2ccccc2c(=O)[nH]1)N[C@H]1CC[C@H](c2nnc(-c3ccccc3)o2)CC1 (stereo partly drawn) [Example 143]"
  pIC50: 7.75

[P] O=C(CCCc1nc2ccccc2c(=O)[nH]1)N[C@H]1CC[C@H](Oc2ccc(Cl)cc2)CC1 [Example 79]
[Q] COc1ccc(-c2nnc(C3CCN(C(=O)CCCc4nc5ccccc5c(=O)[nH]4)CC3)o2)cc1 [Example 15]
Task item: # compare pIC50 for P vs Q ; return the one with the smaller value // caller expects the label of the chosen entry
Reply: Q
(Q: 7.82, P: 8.55)
